System: SA-147 (clinical isolate)
Test: MIC broth microdilution, SA-147
Type: cell-based, Staphylococcus aureus
Conditions: Table 1B
Marks after values point to notes of the source that are not given here.
Measured MIC SA-147, listed per entry.

MOLECULE: CCCCCCCCCCCCCCCCn1cc[n+](C)c1C.[I-] [Compound 8]
SYSTEM_UNDER_TEST: SA-147 (clinical isolate)
MIC SA-147: 1.17^a μM
//
MOLECULE: CCCCCCCCCCCCCCCCn1cc[n+](CCO)c1C.[Br-] [Compound 11]
SYSTEM_UNDER_TEST: SA-147 (clinical isolate)
MIC SA-147: 1.17^a μM
//
MOLECULE: CCCCCCCCCCCCCCCCn1cc[n+](CCCC)c1C.[Br-] [Compound 9]
SYSTEM_UNDER_TEST: SA-147 (clinical isolate)
MIC SA-147: 1.17^a μM
//
MOLECULE: CCCCCCCCCCCCCCCCn1cc[n+](Cc2cccc(OC)c2)c1C.[Br-] [Compound 17]
SYSTEM_UNDER_TEST: SA-147 (clinical isolate)
MIC SA-147: 2.35^a μM
//
MOLECULE: CCCCCCCCCCCCCCCCn1cc[n+](Cc2cccc(F)c2)c1C.[Br-] [Compound 18]
SYSTEM_UNDER_TEST: SA-147 (clinical isolate)
MIC SA-147: 2.35^a μM
